Molecular target: EPHB1 (Homo sapiens)
Test: biochemical
Design: species or system HEK293/K-562/placenta mixed human extract; Kinobeads chemoproteomic competition binding, quantified by TMT LC-MS/MS, dose response up to 20 uM
pIC50: −log10 of the molar value.
property-label: pIC50

Entry under review: COc1nc(N[C@H]2CC[C@H](NS(=O)(=O)CC(C)C)CC2)nc2[nH]nc(N3CCOC[C@H]3C)c12 . Reported pIC50?
≤ 4.70

----------
Biological target: NEK7 (Homo sapiens, UniProt Q8TDX7)
Experiment: biochemical
Set-up: species or system HEK293/K-562/placenta mixed human extract; Kinobeads chemoproteomic competition binding, quantified by TMT LC-MS/MS, dose response up to 20 uM
pIC50: −log10 of the molar value.
property-label: pIC50

# lookup: pIC50 of COc1ccccc1-c1n[nH]c2nc(N[C@H]3CC[C@H](NS(=O)(=O)CCC(F)(F)F)CC3)nc(OC)c12 [compound 31]
≤ 4.70

----------
Target: MAP3K1 (Homo sapiens, UniProt Q13233)
Test: biochemical
Set-up: species or system HEK293/K-562/placenta mixed human extract; Kinobeads chemoproteomic competition binding, quantified by TMT LC-MS/MS, dose response up to 20 uM
property-label: IC50

Write down the reported IC50 of COc1ccccc1-c1n[nH]c2nc(N[C@H]3CC[C@H](NS(=O)(=O)CCC(F)(F)F)CC3)nc(OC)c12 , test system: MAP3K1 (Homo sapiens, UniProt Q13233).
≥ 20 µM

----------
Target: PRKD2 (Homo sapiens, UniProt Q9BZL6)
Sequence (Q9BZL6 whole entry): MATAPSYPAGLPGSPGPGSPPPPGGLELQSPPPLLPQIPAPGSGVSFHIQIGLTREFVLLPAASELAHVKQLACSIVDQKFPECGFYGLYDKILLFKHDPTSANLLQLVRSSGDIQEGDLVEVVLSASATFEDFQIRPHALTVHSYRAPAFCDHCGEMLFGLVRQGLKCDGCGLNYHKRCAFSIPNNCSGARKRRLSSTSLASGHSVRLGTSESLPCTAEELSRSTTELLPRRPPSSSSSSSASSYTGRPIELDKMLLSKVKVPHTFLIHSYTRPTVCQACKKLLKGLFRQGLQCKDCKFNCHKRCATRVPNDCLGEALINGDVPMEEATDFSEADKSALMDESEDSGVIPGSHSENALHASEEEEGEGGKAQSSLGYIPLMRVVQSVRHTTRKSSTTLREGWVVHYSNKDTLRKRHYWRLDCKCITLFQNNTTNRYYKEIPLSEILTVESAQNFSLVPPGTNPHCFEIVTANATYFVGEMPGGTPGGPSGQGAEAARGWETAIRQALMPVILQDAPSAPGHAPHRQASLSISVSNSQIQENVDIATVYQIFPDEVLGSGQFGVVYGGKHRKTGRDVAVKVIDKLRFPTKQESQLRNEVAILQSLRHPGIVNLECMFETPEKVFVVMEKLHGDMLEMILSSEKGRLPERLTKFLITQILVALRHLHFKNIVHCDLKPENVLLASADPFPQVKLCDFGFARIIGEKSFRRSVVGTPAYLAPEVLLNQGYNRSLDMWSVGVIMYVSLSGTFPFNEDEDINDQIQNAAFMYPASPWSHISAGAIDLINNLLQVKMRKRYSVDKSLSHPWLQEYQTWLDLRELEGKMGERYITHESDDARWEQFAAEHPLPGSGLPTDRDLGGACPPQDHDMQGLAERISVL
Experiment: biochemical
Design: species or system HEK293/K-562/placenta mixed human extract; Kinobeads chemoproteomic competition binding, quantified by TMT LC-MS/MS, dose response up to 20 uM
property-label: IC50

Param readout = IC50; param system = PRKD2 (Homo sapiens, UniProt Q9BZL6); param query = COc1nc(N[C@H]2CC[C@H](NS(=O)(=O)CC(C)C)CC2)nc2[nH]nc(N3CCOC[C@H]3C)c12 ; response: value
≥ 20 µM

----------
Molecular target: ABL2 (Homo sapiens)
Sequence (P42684 whole entry): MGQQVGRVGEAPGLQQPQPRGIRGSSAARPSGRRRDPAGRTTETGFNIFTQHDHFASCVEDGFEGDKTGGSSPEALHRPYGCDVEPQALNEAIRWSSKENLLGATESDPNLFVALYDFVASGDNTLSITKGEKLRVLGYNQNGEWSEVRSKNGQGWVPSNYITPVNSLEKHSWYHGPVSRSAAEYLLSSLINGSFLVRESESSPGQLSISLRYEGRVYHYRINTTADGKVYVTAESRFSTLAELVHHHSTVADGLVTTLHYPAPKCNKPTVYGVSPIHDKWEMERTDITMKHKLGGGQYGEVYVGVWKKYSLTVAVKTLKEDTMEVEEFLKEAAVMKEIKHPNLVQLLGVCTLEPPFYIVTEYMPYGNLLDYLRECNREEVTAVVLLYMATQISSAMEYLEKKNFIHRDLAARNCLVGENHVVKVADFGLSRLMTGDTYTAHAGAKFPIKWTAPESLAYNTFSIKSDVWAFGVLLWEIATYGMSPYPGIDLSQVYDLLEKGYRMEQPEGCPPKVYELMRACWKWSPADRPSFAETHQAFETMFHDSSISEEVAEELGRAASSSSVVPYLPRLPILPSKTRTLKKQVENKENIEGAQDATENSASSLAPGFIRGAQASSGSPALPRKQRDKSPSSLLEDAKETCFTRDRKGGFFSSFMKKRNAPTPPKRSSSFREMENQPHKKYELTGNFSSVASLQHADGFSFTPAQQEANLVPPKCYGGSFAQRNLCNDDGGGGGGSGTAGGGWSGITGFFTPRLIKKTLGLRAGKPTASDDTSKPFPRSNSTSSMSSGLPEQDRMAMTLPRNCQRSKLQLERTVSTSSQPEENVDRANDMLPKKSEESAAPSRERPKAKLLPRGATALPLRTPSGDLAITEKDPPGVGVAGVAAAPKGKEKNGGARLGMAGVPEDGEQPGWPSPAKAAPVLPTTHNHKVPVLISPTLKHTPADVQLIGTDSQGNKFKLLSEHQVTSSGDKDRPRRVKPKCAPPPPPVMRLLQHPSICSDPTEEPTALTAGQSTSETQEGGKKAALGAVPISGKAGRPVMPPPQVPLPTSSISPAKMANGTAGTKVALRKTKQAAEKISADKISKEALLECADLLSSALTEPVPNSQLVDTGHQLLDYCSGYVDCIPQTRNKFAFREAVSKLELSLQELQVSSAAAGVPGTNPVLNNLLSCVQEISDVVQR
Assay: biochemical
Set-up: species or system HEK293/K-562/placenta mixed human extract; Kinobeads chemoproteomic competition binding, quantified by TMT LC-MS/MS, dose response up to 20 uM
pIC50: −log10 of the molar value.
property-label: pIC50

Reported pIC50 for COc1nc(N[C@H]2CC[C@H](NS(=O)(=O)CC(C)C)CC2)nc2[nH]nc(N3CCOC[C@H]3C)c12 [compound 39] : what is it?
≤ 4.70

----------
Target: DDR1 (Homo sapiens)
Assay: biochemical
Design: species or system HEK293/K-562/placenta mixed human extract; Kinobeads chemoproteomic competition binding, quantified by TMT LC-MS/MS, dose response up to 20 uM
property-label: IC50

Record request: IC50 value, item COc1ccccc1-c1n[nH]c2nc(N[C@H]3CC[C@H](NS(=O)(=O)CCC(F)(F)F)CC3)nc(OC)c12 [compound 31]
≥ 20 µM

----------
Target: MAPK14 (Homo sapiens, UniProt Q16539)
Test: biochemical
Parameters: species or system HEK293/K-562/placenta mixed human extract; Kinobeads chemoproteomic competition binding, quantified by TMT LC-MS/MS, dose response up to 20 uM
property-label: IC50

Kindly state the measured IC50 obtained for COc1ccccc1-c1n[nH]c2nc(N[C@H]3CC[C@H](NS(=O)(=O)CCC(F)(F)F)CC3)nc(OC)c12 with MAPK14 (Homo sapiens, UniProt Q16539).
≥ 20 µM

----------
Target: EPHB4 (Homo sapiens)
Sequence (P54760 whole entry): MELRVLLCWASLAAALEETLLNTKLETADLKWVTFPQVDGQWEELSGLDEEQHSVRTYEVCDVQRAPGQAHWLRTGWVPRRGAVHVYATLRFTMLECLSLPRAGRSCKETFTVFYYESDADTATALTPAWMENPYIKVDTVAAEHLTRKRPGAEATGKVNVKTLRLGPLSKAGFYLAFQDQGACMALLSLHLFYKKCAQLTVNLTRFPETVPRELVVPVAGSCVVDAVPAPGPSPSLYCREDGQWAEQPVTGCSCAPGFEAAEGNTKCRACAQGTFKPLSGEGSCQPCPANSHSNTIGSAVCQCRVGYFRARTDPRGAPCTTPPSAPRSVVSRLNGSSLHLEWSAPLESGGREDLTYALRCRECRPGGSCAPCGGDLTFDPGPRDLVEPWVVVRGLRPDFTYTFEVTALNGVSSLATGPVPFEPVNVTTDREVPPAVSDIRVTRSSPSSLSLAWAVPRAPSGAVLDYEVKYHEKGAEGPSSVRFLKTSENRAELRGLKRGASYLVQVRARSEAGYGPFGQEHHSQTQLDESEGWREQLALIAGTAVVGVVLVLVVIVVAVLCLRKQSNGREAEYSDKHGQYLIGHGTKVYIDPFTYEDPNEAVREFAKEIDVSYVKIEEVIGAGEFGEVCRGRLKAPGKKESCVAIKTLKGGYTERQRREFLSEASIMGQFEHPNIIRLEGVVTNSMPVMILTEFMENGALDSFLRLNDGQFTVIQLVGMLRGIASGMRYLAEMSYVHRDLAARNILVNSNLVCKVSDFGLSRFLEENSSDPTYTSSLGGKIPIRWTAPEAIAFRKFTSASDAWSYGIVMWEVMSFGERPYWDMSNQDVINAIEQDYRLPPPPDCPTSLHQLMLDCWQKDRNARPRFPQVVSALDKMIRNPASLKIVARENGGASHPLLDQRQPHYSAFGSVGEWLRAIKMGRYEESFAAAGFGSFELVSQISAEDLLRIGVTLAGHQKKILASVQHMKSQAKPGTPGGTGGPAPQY
Assay: biochemical
Parameters: species or system HEK293/K-562/placenta mixed human extract; Kinobeads chemoproteomic competition binding, quantified by TMT LC-MS/MS, dose response up to 20 uM
property-label: IC50

Give IC50 (EPHB4 (Homo sapiens)) of the following compound: COc1ccccc1-c1n[nH]c2nc(N[C@H]3CC[C@H](NS(=O)(=O)CCC(F)(F)F)CC3)nc(OC)c12 [compound 31]
≥ 20 µM

----------
Target: PAK4 (Homo sapiens, UniProt O96013)
Experiment: biochemical
Design: species or system HEK293/K-562/placenta mixed human extract; Kinobeads chemoproteomic competition binding, quantified by TMT LC-MS/MS, dose response up to 20 uM
pIC50: −log10 of the molar value.
property-label: pIC50

Could you tell me which pIC50 is on file for COc1ccccc1-c1n[nH]c2nc(N[C@H]3CC[C@H](NS(=O)(=O)CCC(F)(F)F)CC3)nc(OC)c12 [compound 31] ?
≤ 4.70

----------
Target: EPHA5 (Homo sapiens)
Test: biochemical
Set-up: species or system HEK293/K-562/placenta mixed human extract; Kinobeads chemoproteomic competition binding, quantified by TMT LC-MS/MS, dose response up to 20 uM
pIC50: −log10 of the molar value.
property-label: pIC50

Looking for the measured pIC50 of COc1ccccc1-c1n[nH]c2nc(N[C@H]3CC[C@H](NS(=O)(=O)CCC(F)(F)F)CC3)nc(OC)c12 , can you help?
≤ 4.70

----------
Target: STK16 (Homo sapiens, UniProt O75716)
Sequence (O75716 whole entry): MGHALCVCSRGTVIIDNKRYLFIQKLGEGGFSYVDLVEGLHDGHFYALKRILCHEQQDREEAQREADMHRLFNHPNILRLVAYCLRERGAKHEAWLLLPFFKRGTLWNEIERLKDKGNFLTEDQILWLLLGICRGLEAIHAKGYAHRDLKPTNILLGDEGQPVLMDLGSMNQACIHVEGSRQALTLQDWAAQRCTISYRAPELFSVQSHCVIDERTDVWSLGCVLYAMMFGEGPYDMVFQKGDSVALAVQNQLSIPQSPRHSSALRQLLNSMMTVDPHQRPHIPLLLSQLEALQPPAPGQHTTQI
Assay: biochemical
Set-up: species or system HEK293/K-562/placenta mixed human extract; Kinobeads chemoproteomic competition binding, quantified by TMT LC-MS/MS, dose response up to 20 uM
property-label: IC50

What value of IC50 has been recorded for this entry: COc1ccccc1-c1n[nH]c2nc(N[C@H]3CC[C@H](NS(=O)(=O)CCC(F)(F)F)CC3)nc(OC)c12
≥ 20 µM

----------
Biological target: MAST3 (Homo sapiens)
Assay: biochemical
Design: species or system HEK293/K-562/placenta mixed human extract; Kinobeads chemoproteomic competition binding, quantified by TMT LC-MS/MS, dose response up to 20 uM
property-label: IC50

Which IC50 is reported with MAST3 (Homo sapiens) for this entry: COc1nc(N[C@H]2CC[C@H](NS(=O)(=O)CC(C)C)CC2)nc2[nH]nc(N3CCOC[C@H]3C)c12 ?
≥ 20 µM

----------
Target: CSK (Homo sapiens, UniProt P41240)
Assay: biochemical
Design: species or system HEK293/K-562/placenta mixed human extract; Kinobeads chemoproteomic competition binding, quantified by TMT LC-MS/MS, dose response up to 20 uM
property-label: IC50

Consider the molecule shown here: COc1ccccc1-c1n[nH]c2nc(N[C@H]3CC[C@H](NS(=O)(=O)CCC(F)(F)F)CC3)nc(OC)c12 What is its recorded IC50?
≥ 20 µM

----------
Target: PIM3 (Homo sapiens, UniProt Q86V86)
Assay: biochemical
Parameters: species or system HEK293/K-562/placenta mixed human extract; Kinobeads chemoproteomic competition binding, quantified by TMT LC-MS/MS, dose response up to 20 uM
pIC50: −log10 of the molar value.
property-label: pIC50

Data request, read-out pIC50, for COc1nc(N[C@H]2CC[C@H](NS(=O)(=O)CC(C)C)CC2)nc2[nH]nc(N3CCOC[C@H]3C)c12
≤ 4.70

----------
Biological target: MARK2 (Homo sapiens)
Test: biochemical
Design: species or system HEK293/K-562/placenta mixed human extract; Kinobeads chemoproteomic competition binding, quantified by TMT LC-MS/MS, dose response up to 20 uM
pIC50: −log10 of the molar value.
property-label: pIC50

So what does the record say about pIC50 for COc1ccccc1-c1n[nH]c2nc(N[C@H]3CC[C@H](NS(=O)(=O)CCC(F)(F)F)CC3)nc(OC)c12 [compound 31] ?
≤ 4.70

----------
Molecular target: MAP3K11 (Homo sapiens, UniProt Q16584)
Sequence (Q16584 whole entry): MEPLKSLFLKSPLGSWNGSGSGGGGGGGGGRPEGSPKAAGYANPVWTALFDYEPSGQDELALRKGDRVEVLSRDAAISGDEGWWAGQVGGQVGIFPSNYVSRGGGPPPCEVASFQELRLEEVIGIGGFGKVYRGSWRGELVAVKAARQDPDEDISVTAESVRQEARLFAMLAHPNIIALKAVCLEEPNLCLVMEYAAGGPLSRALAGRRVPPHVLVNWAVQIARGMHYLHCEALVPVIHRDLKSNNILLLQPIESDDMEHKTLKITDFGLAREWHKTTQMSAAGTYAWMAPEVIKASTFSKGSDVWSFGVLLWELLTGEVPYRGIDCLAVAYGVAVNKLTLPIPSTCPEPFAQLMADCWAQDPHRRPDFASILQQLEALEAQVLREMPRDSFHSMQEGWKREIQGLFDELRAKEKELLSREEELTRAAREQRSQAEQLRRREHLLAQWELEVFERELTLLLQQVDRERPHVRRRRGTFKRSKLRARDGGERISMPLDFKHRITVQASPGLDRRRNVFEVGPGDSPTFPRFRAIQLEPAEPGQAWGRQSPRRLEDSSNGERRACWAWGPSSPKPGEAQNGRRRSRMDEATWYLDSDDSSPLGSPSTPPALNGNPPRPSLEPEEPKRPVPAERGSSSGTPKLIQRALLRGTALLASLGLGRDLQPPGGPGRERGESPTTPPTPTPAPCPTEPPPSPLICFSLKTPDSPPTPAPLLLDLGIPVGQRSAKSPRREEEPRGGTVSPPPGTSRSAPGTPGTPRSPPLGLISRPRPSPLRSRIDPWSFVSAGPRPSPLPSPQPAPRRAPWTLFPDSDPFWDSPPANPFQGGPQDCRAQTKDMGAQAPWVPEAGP
Assay: biochemical
Parameters: species or system HEK293/K-562/placenta mixed human extract; Kinobeads chemoproteomic competition binding, quantified by TMT LC-MS/MS, dose response up to 20 uM
pIC50: −log10 of the molar value.
property-label: pIC50

Query: pIC50; subject: COc1nc(N[C@H]2CC[C@H](NS(=O)(=O)CC(C)C)CC2)nc2[nH]nc(N3CCOC[C@H]3C)c12
≤ 4.70

----------
Target: RPS6KA3 (Homo sapiens, UniProt P51812)
Sequence (P51812 whole entry): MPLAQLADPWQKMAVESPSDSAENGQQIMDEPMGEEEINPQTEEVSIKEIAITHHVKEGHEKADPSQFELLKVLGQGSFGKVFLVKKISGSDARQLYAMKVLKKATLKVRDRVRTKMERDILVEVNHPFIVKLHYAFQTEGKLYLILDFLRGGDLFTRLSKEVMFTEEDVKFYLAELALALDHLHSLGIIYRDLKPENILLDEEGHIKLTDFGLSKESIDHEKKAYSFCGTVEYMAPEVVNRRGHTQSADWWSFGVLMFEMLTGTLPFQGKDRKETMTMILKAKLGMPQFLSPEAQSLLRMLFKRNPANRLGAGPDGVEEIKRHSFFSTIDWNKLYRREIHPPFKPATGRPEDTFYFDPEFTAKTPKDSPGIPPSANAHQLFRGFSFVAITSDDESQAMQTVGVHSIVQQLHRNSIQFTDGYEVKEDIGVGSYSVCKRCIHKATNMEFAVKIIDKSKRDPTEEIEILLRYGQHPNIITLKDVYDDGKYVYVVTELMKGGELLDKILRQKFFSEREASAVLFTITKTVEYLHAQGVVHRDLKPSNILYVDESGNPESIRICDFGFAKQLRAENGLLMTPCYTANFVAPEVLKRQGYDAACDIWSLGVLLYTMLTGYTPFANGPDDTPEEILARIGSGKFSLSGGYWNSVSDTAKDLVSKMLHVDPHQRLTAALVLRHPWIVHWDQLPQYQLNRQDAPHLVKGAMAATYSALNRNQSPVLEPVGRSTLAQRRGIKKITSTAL
Assay: biochemical
Set-up: species or system HEK293/K-562/placenta mixed human extract; Kinobeads chemoproteomic competition binding, quantified by TMT LC-MS/MS, dose response up to 20 uM
property-label: IC50

Using the record for COc1ccccc1-c1n[nH]c2nc(N[C@H]3CC[C@H](NS(=O)(=O)CCC(F)(F)F)CC3)nc(OC)c12 [compound 31] , report its IC50.
≥ 20 µM

----------
Biological target: CDK2 (Homo sapiens, UniProt P24941)
Assay: biochemical
Set-up: species or system HEK293/K-562/placenta mixed human extract; Kinobeads chemoproteomic competition binding, quantified by TMT LC-MS/MS, dose response up to 20 uM
property-label: pIC50
Note on pIC50: it is the negative log10 of concentration, concentration in mol/L.

# get_value(readout= pIC50, system= CDK2 (Homo sapiens, UniProt P24941)) for COc1nc(N[C@H]2CC[C@H](NS(=O)(=O)CC(C)C)CC2)nc2[nH]nc(N3CCOC[C@H]3C)c12
5.35
